system: Hirsutella rhossiliensis; assay: Effect of carbon source on growth, sporulation and spore germination; conditions: carbon source 4 g/liter carbon; isolate JA16-1; 5 weeks
Listing of entries alongside the reported Growth mm-in-diam, on agar.
measurement label: Growth mm-in-diam, on agar (mm-in-diam)

molecule | measurement label | result units | readout value
OC[C@H]1O[C@@](CO)(O[C@H]2O[C@H](CO)[C@@H](O)[C@H](O)[C@H]2O)[C@@H](O)[C@@H]1O [Sucrose] | Growth mm-in-diam, on agar | mm-in-diam | 15.0
OC[C@H]1O[C@H](OCC2O[C@@H](O)[C@H](O)[C@@H](O)[C@@H]2O)[C@H](O)[C@@H](O)[C@H]1O (stereo partly shown) [Melibiose] | Growth mm-in-diam, on agar | mm-in-diam | 11.8
O=C[C@H](O)[C@@H](O)[C@H](O)[C@H](O)CO [D-(+)-glucose] | Growth mm-in-diam, on agar | mm-in-diam | 6.5
O=C(CO)[C@@H](O)[C@H](O)[C@H](O)CO [D(−)fructose] | Growth mm-in-diam, on agar | mm-in-diam | 0.0
O=C(O)CC(O)(CC(=O)O)C(=O)O [Citric acid] | Growth mm-in-diam, on agar | mm-in-diam | 0.0
O=C[C@H](O)[C@H](O)[C@H](O)CO [D(−) ribose] | Growth mm-in-diam, on agar | mm-in-diam | 0.0
OC[C@H]1O[C@@H](O[C@H]2[C@H](O)[C@@H](O)[C@H](O)O[C@@H]2CO)[C@H](O)[C@@H](O)[C@@H]1O [D-(+)-cellubiose] | Growth mm-in-diam, on agar | mm-in-diam | 10.0
OC[C@H]1O[C@H](O[C@H]2[C@H](O)[C@@H](O)[C@H](O)O[C@@H]2CO)[C@H](O)[C@@H](O)[C@@H]1O [Maltose monohydrate] | Growth mm-in-diam, on agar | mm-in-diam | 11.0
OC[C@@H](O)[C@@H](O)[C@H](O)[C@@H](O)CO [D-sorbitol] | Growth mm-in-diam, on agar | mm-in-diam | 18.3
OC[C@H]1O[C@H](O[C@H]2O[C@H](CO)[C@@H](O)[C@H](O)[C@H]2O)[C@H](O)[C@@H](O)[C@@H]1O [D(+) trehalose] | Growth mm-in-diam, on agar | mm-in-diam | 18.3
O=C[C@H](O)[C@@H](O)[C@H](O)CO [D(+)xylose] | Growth mm-in-diam, on agar | mm-in-diam | 0.0
O=C(CO)[C@@H](O)[C@H](O)[C@@H](O)CO [L-(−)-sorbose] | Growth mm-in-diam, on agar | mm-in-diam | 0.0
O=C[C@H](O)[C@@H](O)[C@@H](O)[C@H](O)CO [D(+)galactose] | Growth mm-in-diam, on agar | mm-in-diam | 0.0
OC[C@@H](O)[C@@H](O)[C@H](O)[C@H](O)CO [D-mannitol] | Growth mm-in-diam, on agar | mm-in-diam | 18.0
O.OC[C@H]1O[C@@H](O[C@H]2[C@H](O)[C@@H](O)[C@@H](O)O[C@@H]2CO)[C@H](O)[C@@H](O)[C@H]1O [a-lactose monohydrate] | Growth mm-in-diam, on agar | mm-in-diam | 15.8
O=C[C@@H](O)[C@H](O)[C@H](O)CO [D-(−)-arabinose] | Growth mm-in-diam, on agar | mm-in-diam | 0.0
